Test system: TRPC4 beta (transient receptor potential cation channel C4), mouse
Test: potentiation of DAMGO EC20 TRPC4 response – cell-based, Fluo-4, HEK293 TRPC4beta/mu-opioid, confirmation (AID 2555)
Conditions: DAMGO EC20, Fluo-4 calcium flux, at 10 µM
The source made the active and inactive calls.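 How the source made its calls: active means primary screen hit whose calcium fluorescence ratio, in both repeats, exceeds the weak agonist control mean by 3 SD; inactive means the rest.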
Outcomes you can answer with include only these: 1.0 (active), 0.0 (inactive)

Would you please look over these solved cases?
>  <MOLECULE>
Cc1cc(C)cc(NC(=S)N2CCN(c3ncc(C(F)(F)F)cc3Cl)CC2)c1

>  <SYSTEM_NAME>
TRPC4 beta (transient receptor potential cation channel C4), mouse

>  <CLASS_NAME>
0.0

$$$$
>  <MOLECULE>
O=C(COc1cc(Cl)c(Cl)cc1Cl)NCCc1ccccn1

>  <SYSTEM_NAME>
TRPC4 beta (transient receptor potential cation channel C4), mouse

>  <CLASS_NAME>
0.0

$$$$
>  <MOLECULE>
Cc1ccc(-c2ccc3c(c2)S(=O)(=O)c2ccccc2C3=O)cc1

>  <SYSTEM_NAME>
TRPC4 beta (transient receptor potential cation channel C4), mouse

>  <CLASS_NAME>
0.0

$$$$
>  <MOLECULE>
CCCCN(Cc1ccccc1)C(=O)C1CCN(Cc2sccc2C)CC1

>  <SYSTEM_NAME>
TRPC4 beta (transient receptor potential cation channel C4), mouse

>  <CLASS_NAME>
0.0

$$$$
>  <MOLECULE>
CCCCCOc1ccc2oc(=O)c3c(c2c1)CCCN3C(=O)CN1CCCC(C(=O)OCC)C1 (stereo unspecified)

>  <SYSTEM_NAME>
TRPC4 beta (transient receptor potential cation channel C4), mouse

>  <CLASS_NAME>
0.0

$$$$

Problem: Which outcome was assigned to "Cn1c(NCc2ccccc2O)nc2ccccc21" in this test?
Result: 0.0

Problem: Continue with COc1ccc(-c2nn(-c3ccccc3C)cc2CNC(C)c2cn(C)nc2C)cc1F (stereo unspecified)
Result: 0.0

Problem: Continue with CCN(CC)CCn1c(=N)n(CC(O)COc2cccc(C)c2)c2ccccc21 (stereo unspecified)
Result: 0.0

Origin of measurements: PubChem BioAssay
